Biological target: T1, human ACVR2A (human, UniProt P27037 20-135, limits assumed); further: test concentration or dose not given here
T1 construct: also called activin receptor, type II A
T1 sequence (P27037 20-135 limits assumed): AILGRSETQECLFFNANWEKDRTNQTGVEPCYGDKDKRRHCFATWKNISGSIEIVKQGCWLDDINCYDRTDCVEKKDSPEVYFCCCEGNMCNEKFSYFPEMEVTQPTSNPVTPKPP
Experiment: ELISA
Protocol: The binding of ACVR2A-specific monoclonal antibodies to human ACVR2A, mouse ACVR2A, biotinylated goat anti-human kappa light chain (positive control) and human Fc (negative control) were determined by ELISA.
# optical density values compiled below
PROPERTY_LABEL: optical density (OD)

BINDER	MEASURED_RESULT
376_G02 (antibody, V domains shown, Group I) VH: EVQLLESGGGLVQPGGSLRLSCAASGFTFSDYGMNWVRQAPGKGLEWVSGINYNGGYTSYADSVKGRFTISRDNSKNTLYLQMNSLRAEDTAVYYCARAANWHDTALDYWGQGTLVTVSS VL: DIQMTQSPSSLSASVGDRVTITCRASQSISRYLNWYQQKPGKAPKLVIYAATSLASGVPSRFSGSGSGTDFTLTISSLQPEDFATYYCQQSYDNPLTFGGGTKVEIK	3.69
368_E08 (antibody, V domains shown, Group II) VH: EVQLLESGGGLVQPGGSLRLSCAASGFTFDSYGMHWVRQAPGKGLEWVANINYNSGYTGYADSVKGRFTISRDNSKNTLYLQMNSLRAEDTAVYYCARAATWHDTHLDYWGQGTLVTVSS VL: DIQMTQSPSSLSASVGDRVTITCRASQSILSYVNWYQQKPGKAPKLVIYAATSLHSGVPSRFSGSGSGTDFTLTISSLQPEDFATYYCQQSYETPLTFGGGTKVEIK	2.27
368_D03 (antibody, V domains shown, Group II) VH: EVQLLESGGGLVQPGGSLRLSCAASGFTFSDYSMHWVRQAPGKGLEWVASINYNGGYTSYADSVKGRFTISRDNSKNTLYLQMNSLRAEDTAVYYCARAATWHDTHLDYWGQGTLVTVSS VL: DIQMTQSPSSLSASVGDRVTITCRASQSIITYVNWYQQKPGKAPKLLIYATTSRASGVPSRFSGSGSGTDFTLTISSLQPEDFATYYCQQSYDLPLTFGGGTKVEIK	2.39
371_A04 (antibody, V domains shown, Group I) VH: EVQLLESGGGLVQPGGSLRLSCAASGFTFDSYGMNWVRQAPGKGLEWVSSINYNSGYTGYADSVKGRFTISRDNSKNTLYLQMNSLRAEDTAVYYCARAANWHDTALDYWGQGTLVTVSS VL: DIQMTQSPSSLSASVGDRVTITCRASQSILTYLNWYQQKPGKAPKLLIYAVTSRASGVPSRFSGSGSGTDFTLTISSLQPEDFATYYCQQSYDTPLTFGGGTKVEIK	1.01
368_F10 (antibody, V domains shown, Group I) VH: EVQLLESGGGLVQPGGSLRLSCAASGFTFSSYGMNWVRQAPGKGLEWVAGINYNSGYTSYADSVKGRFTISRDNSKNTLYLQMNSLRAEDTAVYYCARAANWHDTHLDYWGQGTLVTVSS VL: DIQMTQSPSSLSASVGDRVTITCRASQSIVSYVNWYQQKPGKAPKLLIYAATSRASGVPSRFSGSGSGTDFTLTISSLQPEDFATYYCQQSYDTPLTFGGGTKVEIK	2.25
